# Test system: HCC1428 (Breast Carcinoma);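 note: after 72 h of two-drug dosing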
# Measurement Notes: Bliss excess, mean over the matrix (fraction); higher = more synergy
# Bliss excess listing for each entry below

{"columns": ["Compound", "Bliss excess"],
 "data": [
  ["Cn1cnc2c(F)c(Nc3ccc(Br)cc3Cl)c(C(=O)NOCCO)cc21 [Selumetinib] + CC(C)n1c(=O)n(C)c2cnc3cc(F)c(-c4ccc(OCCCN5CCCCC5)nc4)cc3c21 [AZD1390] (first compound max 10 µM, 7x7, partner max 0.3 µM)", -0.0333],
  ["CC1(C)CCC(CN2CCN(c3ccc(C(=O)NS(=O)(=O)c4ccc(NCC5CCOCC5)c([N+](=O)[O-])c4)c(Oc4cnc5[nH]ccc5c4)c3)CC2)=C(c2ccc(Cl)cc2)C1 [Venetoclax] + Cn1cnc2c(F)c(Nc3ccc(Br)cc3Cl)c(C(=O)NOCCO)cc21 [Selumetinib] (first compound max 1 µM, 7x7, partner max 3 µM)", -0.026],
  ["CN(C)CCCOc1ccc(-c2ccc3ncc4c(c3c2)n(C2CCOCC2)c(=O)n4C)cn1 [AZD0156] + C=CCn1c(=O)c2cnc(Nc3ccc(N4CCN(C)CC4)cc3)nc2n1-c1cccc(C(C)(C)O)n1 [AZD1775] (first compound max 1 µM, partner max 1 µM)", -0.115],
  ["COc1cccc(OCCCN)c1-c1cc(Nc2cnc(C#N)cn2)n[nH]1 [Prexasertib] + CN(C)CCCOc1ccc(-c2ccc3ncc4c(c3c2)n(C2CCOCC2)c(=O)n4C)cn1 [AZD0156] (first compound max 1 µM, 7x7, partner max 1 µM)", -0.0703]
]}

----------
# System: COLO-792 (Melanoma)
# Measurement Notes: combination Emax (second highest fraction inhibited in the dose matrix, 72 h); higher = more inhibition; extreme values may be limits of the assay
# combination Emax listing for each entry below

{"columns": ["Molecule", "combination Emax"],
 "data": [
  ["COc1nnc2ccc(N3CCC(c4ccc(OCCN5CCN(C)C(=O)[C@H]5C)cc4)CC3)nn12 [AZD5153] + C=CCn1c(=O)c2cnc(Nc3ccc(N4CCN(C)CC4)cc3)nc2n1-c1cccc(C(C)(C)O)n1 [AZD1775] (first compound max 1 µM, partner max 1 µM)", 0.856],
  ["Cc1c2c(nn1C)CSCc1cc(n(C)n1)CSc1cc(c3ccccc3c1)OCCCc1c(C(=O)O)n(C)c3c-2c(Cl)ccc13 [AZD5991] + C=CCn1c(=O)c2cnc(Nc3ccc(N4CCN(C)CC4)cc3)nc2n1-c1cccc(C(C)(C)O)n1 [AZD1775] (first compound max 1 µM, partner max 1 µM)", 0.988],
  ["NC1(C(=O)N[C@@H](CCO)c2ccc(Cl)cc2)CCN(c2ncnc3[nH]ccc23)CC1 [Capivasertib] + C[C@@H]1COCCN1C2=NC(=NC(=C2)C3(CC3)[S@](=N)(=O)C)C4=C5C=CNC5=NC=C4 [AZD6738] (first compound max 10 µM, 7x7, partner max 10 µM)", 0.549],
  ["COc1nnc2ccc(N3CCC(c4ccc(OCCN5CCN(C)C(=O)[C@H]5C)cc4)CC3)nn12 [AZD5153] + Cc1c2c(nn1C)CSCc1cc(n(C)n1)CSc1cc(c3ccccc3c1)OCCCc1c(C(=O)O)n(C)c3c-2c(Cl)ccc13 [AZD5991] (first compound max 1 µM, 7x7, partner max 1 µM)", 1]
]}
